Each entry below carries its reported inhibition.
target: Tyrosine-protein kinase Yes (Homo sapiens) (UniProt P07947); settings: at 0.1 µM;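 also: mean inhibition of YES, from the GSK PKIS dataset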
Sequence (P07947 2-543 limits assumed): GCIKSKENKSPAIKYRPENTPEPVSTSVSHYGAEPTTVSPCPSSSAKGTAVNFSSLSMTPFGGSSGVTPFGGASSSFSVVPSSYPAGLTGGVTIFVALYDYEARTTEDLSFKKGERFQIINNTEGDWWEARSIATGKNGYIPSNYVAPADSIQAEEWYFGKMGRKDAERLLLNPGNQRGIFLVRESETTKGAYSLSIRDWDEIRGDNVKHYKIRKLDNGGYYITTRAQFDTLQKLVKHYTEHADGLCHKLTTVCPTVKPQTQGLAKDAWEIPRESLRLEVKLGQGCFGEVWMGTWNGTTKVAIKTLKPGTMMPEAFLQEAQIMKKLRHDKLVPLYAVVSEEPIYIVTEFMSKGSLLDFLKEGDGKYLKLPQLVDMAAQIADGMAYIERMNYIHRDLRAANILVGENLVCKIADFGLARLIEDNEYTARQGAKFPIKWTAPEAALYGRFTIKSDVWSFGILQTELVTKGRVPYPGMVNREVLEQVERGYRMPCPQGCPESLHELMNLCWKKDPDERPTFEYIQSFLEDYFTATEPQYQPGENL
Write the value in % as a bare number.

Here are 5 compounds together with their reported answers.
| compound | system name | unit annotation | inhibition |
| --- | --- | --- | --- |
| c1ccc(Oc2ccc(Nc3ncc(-c4ccccc4)o3)cc2)cc1 | Tyrosine-protein kinase Yes (Homo sapiens) (UniProt P07947) | % | 0.58 |
| Cc1ccc(C(=O)NC2CCC2)cc1-c1ccc(C(=O)NCC2CC2)cc1 | Tyrosine-protein kinase Yes (Homo sapiens) (UniProt P07947) | % | 1.57 |
| O=C1NC(=O)C(c2cccc(Cl)c2)=C1Nc1ccc(Cl)c(C(=O)O)c1 | Tyrosine-protein kinase Yes (Homo sapiens) (UniProt P07947) | % | 4.03 |
| CCc1ccc(Oc2nccc(-c3c(-c4ccc(F)cc4)ncn3C3CCNCC3)n2)cc1 | Tyrosine-protein kinase Yes (Homo sapiens) (UniProt P07947) | % | 4.27 |
| CCS(=O)(=O)c1ccc(OC)c(Nc2ncc(-c3cccc(-c4ccccc4F)c3)o2)c1 | Tyrosine-protein kinase Yes (Homo sapiens) (UniProt P07947) | % | 25.7 |

What value of inhibition has been recorded for this entry: O=C1Nc2ccc(I)cc2C1=Cc1cc(Br)c(O)c(Br)c1
2.36

Then this compound: O=C(NCC1CC1)c1ccc(-c2cccc(C(=O)NC3CC3)c2)cc1
-0.02

Then this compound: COc1cccc(-n2cnc3c(N/N=C/c4ccncc4)ncnc32)c1
7.55

Then this compound: Cc1ccc(C(=O)NC(C)C)cc1-c1ccc(C(=O)NCC2CC2)cc1
-0.21

Then this compound: CS(=O)(=O)CCNCc1cc(-c2cc3c(Nc4ccc(OCc5cccc(F)c5)c(Cl)c4)ncnc3s2)cs1
3.05

Then this compound: C[C@@H](Oc1cc(-n2cnc3ccc(OC4CCN(C)CC4)cc32)sc1C(N)=O)c1ccccc1Cl
-0.81

Then this compound: NS(=O)(=O)c1ccc(N/N=C2\C(=O)Nc3ccc(-c4cnco4)cc32)cc1
2.12

Then this compound: CN(C)c1ccc2c(c1)/C(=C/Nc1ccc(S(N)(=O)=O)cc1)C(=O)N2
2.8

Then this compound: N#Cc1ccc(Oc2nccc(-c3c(-c4ccc(F)cc4)ncn3C3CCNCC3)n2)cc1
3.38

Then this compound: Cc1nnc(-c2ccc(C)c(-c3ccc(C(=O)NCc4ccc(Cl)cc4)cc3)c2)o1
2.58

Then this compound: CCc1nccc2c1nc(-c1nonc1N)n2CC
0.39

These data points were gathered from ChEMBL document CHEMBL1961873.
